Values from patent US6800630B2

Test system: human squamous lung cancer Ma44
Test: In vitro cell growth inhibition test, MTT assay
Format: cell-based
Conditions: MTT assay 4 days after compound addition
RESULT TYPE: IC50 Ma44 (mg/L)

(1) CCNC(=Nc1nc(C)ncc1C(C)Sc1nnc(-c2ccc([N+](=O)[O-])cc2)o1)SC (racemic)
(2) CNC(=Nc1nc(C)ncc1CSc1nnc(-c2ccc([N+](=O)[O-])cc2)o1)SC
So which one has the bigger IC50 Ma44 here, 1 or 2 ? Please reply using the label of the selected record. 2
(2: 0.12 mg/L, 1: 0.042 mg/L)

(a) CCSC(=Nc1nc(C)ncc1CSc1nnc(-c2ccc(N)cc2)o1)NC
(b) CNC(=Nc1nc(C)ncc1CSc1nnc(-c2ccc(N)cc2)o1)SC
So which one has the bigger IC50 Ma44 here, a or b ? Please reply using the label of the selected record. b

###

Test system: human squamous lung cancer RERF-RC-AI
Assay: In vitro cell growth inhibition test, MTT assay
Assay type: cell-based
Conditions: MTT assay 4 days after compound addition
Source text: Test Example 2 In vitro cell growth inhibition test Cells and MTT assay Human squamous lung cancer […], human squamous lung cancer Ma44, human lung adenocarcinoma A549, human colon cancer HT29 and human pancreas cancer PANC-1 were used.
RESULT TYPE: IC50 RERF-LC-AI (ng/mL)

(1) CCCNC(=Nc1nc(C)ncc1CSc1nnc(-c2ccc(N)cc2)o1)SC
(2) CCNC(=Nc1nc(C)ncc1CSc1nnc(-c2ccc([N+](=O)[O-])cc2)o1)SC
(3) CNC(=Nc1nc(C)ncc1CSc1nnc(-c2ccc([N+](=O)[O-])cc2)o1)OC(C)C
Highest to lowest IC50 RERF-LC-AI: rank the entries shown above. The labels, placed in the requested order, form the answer. 2, 3, 1

###

System: H460
Test: In vitro cell growth inhibition test, MTT assay
Assay type: cell-based
Details: MTT assay 4 days after compound addition
RESULT TYPE: IC50 H460 (µg/mL)

(P) CCCSC(=Nc1nc(C)ncc1CSc1nnc(-c2ccc(N)cc2)o1)NC
(Q) CCCSC(=Nc1nc(C)ncc1CSc1nnc(-c2ccc([N+](=O)[O-])cc2)o1)NC
So which one has the bigger IC50 H460 here, P or Q ? Please reply using the label of the selected record. P

###

System: H460
Assay: In vitro cell growth inhibition test, MTT assay
Type: cell-based
Conditions: MTT assay 4 days after compound addition
RESULT TYPE: IC50 H460 (µg/mL)

Worked examples, 4 compounds total:
{"columns": ["COMPOUND", "UNITS SYMBOL", "VAL"],
 "data": [
  ["CCCSC(=Nc1nc(C)ncc1CSc1nnc(-c2ccc(N)cc2)o1)NCC [Compound A-16]", "µg/mL", 0.0107],
  ["CCCSC(=Nc1nc(C)ncc1CSc1nnc(-c2ccc([N+](=O)[O-])cc2)o1)NCC [Compound A-8]", "µg/mL", 0.0068],
  ["CCCNC(=Nc1nc(C)ncc1CSc1nnc(-c2ccc([N+](=O)[O-])cc2)o1)NN(C)C [Compound A-18]", "µg/mL", 0.0275],
  ["CCNC(=Nc1nc(C)ncc1CSc1nnc(-c2ccc([N+](=O)[O-])cc2)o1)SCC [Compound A-6]", "µg/mL", 0.0256]
]}

(a) CCCNC(=Nc1nc(C)ncc1CSc1nnc(-c2ccc(N)cc2)o1)SC [Compound A-12]
(b) CCSC(=Nc1nc(C)ncc1CSc1nnc(-c2ccc([N+](=O)[O-])cc2)o1)NC [Compound A-5]
// select label with min value of measured IC50 H460 from [ a , b ] Please reply using the label of the selected record. a
